# ASSAYED SYSTEM: Protein-arginine deiminase type-4 (Homo sapiens)
# ASSAY OVERVIEW: PAD4 inhibition reversibility after dialysis, late-stage follow-up, mechanism study for PAD4 inhibitor project, biochemical, BAEE substrate, colorimetric citrulline readout (AID 651627)
# RECORDED CONDITIONS: recombinant PAD4, dialysis, at 100 µM, stronger effect = lower value
RECORDED METRIC: residual activity after dialysis (%)
Expressed in %, but write only the number.

>>> print(df.to_string())
                               input_smiles                   recorded_metric  display_unit  recorded_value
0               COC1=C(Br)C(=O)c2ncccc2C1=O  residual activity after dialysis             %               0
1         NC1=CC(=O)c2ccc(-c3ccccn3)nc2C1=O  residual activity after dialysis             %              12
2  COC(=O)c1cccc(-c2ccc3c(n2)C(=O)C(N)=CC3=O)n1  residual activity after dialysis             %              13
3                    NC1=CC(=O)c2cccnc2C1=O  residual activity after dialysis             %               2

Consider the additional compound presented here.
// query residual activity after dialysis value for entry NC1=CC(=O)c2ccc(-c3cccc(C(=O)O)n3)nc2C1=O
0
